Measured Tm accompanies every entry in the list below.
test-method-notes: melting temperature; fluorescence melt of hairpins on a sequencing array, two-state fit, raised by 9.35 °C to match UV melts
conditions: sodium 0.088 M
Supply the numeric figure in °C, leaving out any unit text.

Q) Give the measured Tm of GTACACCGAAAGGTATAC (((.(((....))).))) .
A) 39.1

* * *

test-method-notes: melting temperature; fluorescence melt of hairpins on a sequencing array, two-state fit, raised by 9.35 °C to match UV melts
conditions: sodium 0.088 M
// Tm lookup, one value per entry
Hi! Could you send only the number? It should be in °C, unit omitted.

Past entries and their recorded results:
Q) Bench note: what Tm did GGACGCTCGAAAGAGTCC (((..(((....)))))) show?
A) 46.5

Q) Continue with GCACTCGGAAACGAGCGC ((.((((....)))).))
A) 55.2

Q) Field entry: GTGTGAGGAAACTCACAC (((((((....)))))))
A) 63.4

Further cases:
Q) Quick one: Tm of GATTGCGAAAGCAACATC ((((((....)))..))) ?
A) 28.5

Q) Proceed to GATCCTCCCTAGGATC ((((((....))))))
A) 50.8

Q) // next record GCCAGGCGAAAGCCCTGC ((..(((....)))..))
A) 45.1
